Reported logP is given for each of the following molecules.
- ASSAY_COMMENT: Measurement of log P values by HPLC on reversed phase columns (methods [a] pH 2.3, [b] pH 2.7, [c] pH 7.8)
- Type: physicochemical
- EXPERIMENTAL_CONTEXT: HPLC reversed phase, method [b] (pH 2.7)

Illustrative cases are given below, each with its answer.
{"MOLECULE": "O=C(NC1CCCCC1c1ccccc1Cl)c1cccnc1Cl (stereo not drawn) [Example 380]", "logP": "3.16^[b]"}
{"MOLECULE": "O=C(NC1CCCC1c1ccccc1C(F)(F)F)c1ccccc1C(F)(F)F (stereo not drawn) [Example 286]", "logP": "3.79^[b]"}
{"MOLECULE": "O=C(NC1CCC1c1ccc(F)cc1C(F)(F)F)c1ncc(C(F)(F)F)cc1Cl (stereo not drawn) [Example 483]", "logP": "3.97^[b]"}

IN: Entry O=C(NC1CCC1c1c(F)cccc1F)c1ccccc1 (stereo not drawn) [Example 514] has what logP?
OUT: 2.75^[b]

IN: Likewise for O=C(N[C@@H]1CC[C@@H]1c1c(F)cccc1C(F)(F)F)c1ccccc1I (relative stereo) [Compound 542] ?
OUT: 3.96^[b]

IN: Likewise for O=C(NC1CCCCC1c1ccccc1Br)c1ccccc1I (stereo not drawn) [Example 406] ?
OUT: 4.12^[b]

IN: Likewise for O=C(NC1CCCCC1c1c(F)cccc1F)c1cccnc1C(F)(F)F (stereo not drawn) [Example 398] ?
OUT: 3.26^[b]

IN: Likewise for O=C(N[C@@H]1CC[C@@H]1c1ccc(Cl)cc1Cl)c1ncccc1Cl (relative stereo) [Compound 260] ?
OUT: 3.28^[b]

IN: Likewise for O=C(NC1CCC1c1cc(F)ccc1C(F)(F)F)c1ncccc1Cl (stereo not drawn) [Compound 518] ?
OUT: 3.08^[b]

---

- ASSAY_COMMENT: Measurement of log P values by HPLC on reversed phase columns (methods [a] pH 2.3, [b] pH 2.7, [c] pH 7.8)
- Type: physicochemical
- EXPERIMENTAL_CONTEXT: HPLC reversed phase, method [b] (pH 2.7)
QUANTITY: logP

IN: Entry O=C(NC1CCCC1c1ccc(Cl)cc1)c1ccccc1C(F)(F)F (centres unmarked) has what logP?
OUT: 3.64^[b]

IN: Likewise for O=C(N[C@@H]1CC[C@@H]1c1cc(F)ccc1C(F)(F)F)c1ccccc1 (relative stereo) ?
OUT: 3.15^[b]

IN: Likewise for O=C(N[C@@H]1CC[C@@H]1c1cc(F)ccc1C(F)(F)F)c1ccccc1Br (relative stereo) ?
OUT: 3.38^[b]

IN: Likewise for O=C(NC1CC1c1ccc(Cl)cc1)c1ccccc1C(F)(F)F (centres unmarked) ?
OUT: 2.98^[b]

IN: Likewise for O=C(NC1CCC1c1ccc(Cl)cc1Cl)c1ccccc1C(F)(F)F (centres unmarked) [Compound 476] ?
OUT: 3.72^[b]

IN: Likewise for Cc1nn(C)cc1C(=O)NC1CCCC1c1ccccc1Cl (centres unmarked) ?
OUT: 2.24^[b]

IN: Likewise for O=C(N[C@@H]1CC[C@@H]1c1ccc(Cl)cc1Cl)c1ccc(Cl)cc1Cl (relative stereo) ?
OUT: 4.16^[b]

IN: Likewise for O=C(N[C@@H]1CC[C@@H]1c1cc(F)ccc1C(F)(F)F)c1ccccc1I (relative stereo) ?
OUT: 3.52^[b]

IN: Likewise for O=C(NC1CCCCC1c1ccccc1Cl)c1ccccc1I (centres unmarked) ?
OUT: 4.02^[b]

IN: Likewise for Cc1nc(C(F)(F)F)c(C(=O)N[C@@H]2CC[C@@H]2c2ccc(F)cc2C(F)(F)F)s1 (relative stereo) ?
OUT: 3.35^[b]

IN: Likewise for O=C(NC1CCC1c1ccc(Cl)cc1Cl)c1ccc(Cl)cc1 (centres unmarked) [Example 452] ?
OUT: 4.33^[b]

IN: Likewise for O=C(NC1CCCC1c1c(F)cccc1F)c1cccnc1C(F)(F)F (centres unmarked) [Compound 313] ?
OUT: 2.87^[b]

IN: Likewise for O=C(NC1CCCC1c1ccccc1Cl)c1cccnc1Cl (centres unmarked) ?
OUT: 2.64^[b]

IN: Likewise for O=C(N[C@@H]1CC[C@@H]1c1ccc(F)cc1C(F)(F)F)c1ccccc1Br (relative stereo) ?
OUT: 3.39^[b]

IN: Likewise for O=C(N[C@@H]1CC[C@@H]1c1c(F)cccc1C(F)(F)F)c1sccc1I (relative stereo) ?
OUT: 4.00^[b]

IN: Likewise for Cc1nc(C)c(C(=O)NC2CCCCC2c2ccccc2Cl)s1 (centres unmarked) ?
OUT: 3.24^[b]

IN: Likewise for O=C(NC1CCCC1c1ccccc1C(F)(F)F)c1c(F)cccc1F (centres unmarked) ?
OUT: 3.38^[b]
